# method-summary: Stability of the powder in sealed aluminium foil bag, purity and titre by HPLC after 6 and 12 months
# Format: physicochemical
# condition-set: airtight container, protected from light, start
quantity: Starting values Titre

Nc1nc2ncc(CNc3ccc(C(=O)N[C@@H](CCC(=O)O)C(=O)O)cc3)nc2c(=O)[nH]1 [D-GLU folate, D-glucosamine L-folate]	54.6
CN1c2c(nc(N)[nH]c2=O)NCC1CNc1ccc(C(=O)NC(CCC(=O)O)C(=O)O)cc1 (centres unmarked)	55.7
Nc1nc2ncc(CNc3ccc(C(=O)N[C@@H](CCC(=O)O)C(=O)O)cc3)nc2c(=O)[nH]1 [D-GAL folate, D-galactosamine L-folate]	54.8
CN1c2c(nc(N)[nH]c2=O)NCC1CNc1ccc(C(=O)N[C@@H](CCC(=O)O)C(=O)O)cc1 (stereo partly drawn) [D-GAL (6R,S)-5-MTHF]	55.5
CN1c2c(nc(N)[nH]c2=O)NCC1CNc1ccc(C(=O)N[C@@H](CCC(=O)O)C(=O)O)cc1 (stereo partly drawn) [D-GLU 5-MTHF]	55.2

Value source: patent EP2245032B1
